- Tested on: HCT116 cells
- method.summary: MTT antiproliferative assay, HCT116 cells
- Format: cell-based
- conditions: Homo sapiens, HCT-116, HCT116 CRC cell line, triplicate, read-out: IC50 ± SD HCT116
measurement.kind: IC50 (µM)

>>> obs_value("CCOC(=O)Cn1c(C)nc2c(cnn2-c2ccccc2)c1=O")
10.9

I: COC(=O)Cn1c(C)nc2c(cnn2-c2ccccc2)c1=O
II: Cc1nc2c(cnn2-c2ccccc2)c(=O)n1CC(=O)Nc1ccc(F)cc1
*Q* Task for the reader: decide whether I or II has the larger IC50. Output the label that corresponds to your choice.
*A* I
(I: 19.4 µM, II: 1.09 µM)
